experiment_summary: Arithmetic mean of AUC(0-infinity) of saquinavir mesylate following oral repeat dosing of 1000 mg Invirase Hard Gel Capsules capsules in healthy human
Format: ADME, organism-based
experimental_context: both, plasma, read-out: AUC(0-infinity)
property_measured: AUC(0-inf) (ng·h/mL)

* CC(C)(C)NC(=O)[C@@H]1C[C@@H]2CCCC[C@@H]2CN1C[C@@H](O)[C@H](Cc1ccccc1)NC(=O)[C@H](CC(N)=O)NC(=O)c1ccc2ccccc2n1 | 1190

* * *

experiment_summary: Mean exposure of saquinavir mesylate estimated by Cmax following oral repeat dosing of 1000 mg Invirase Hard Gel Capsules capsules in healthy woman
Assay type: ADME, organism-based
experimental_context: female, human, plasma
property_measured: Cmax (ng/mL)

* CC(C)(C)NC(=O)[C@@H]1C[C@@H]2CCCC[C@@H]2CN1C[C@@H](O)[C@H](Cc1ccccc1)NC(=O)[C@H](CC(N)=O)NC(=O)c1ccc2ccccc2n1 | 306

* * *

experiment_summary: Mean exposure of saquinavir mesylate estimated by Cmax following oral repeat dosing of 1000 mg Invirase Film-coated tablet in healthy men
Assay type: ADME, organism-based
experimental_context: male, human, plasma
property_measured: Cmax (ng/mL)

- CC(C)(C)NC(=O)[C@@H]1C[C@@H]2CCCC[C@@H]2CN1C[C@@H](O)[C@H](Cc1ccccc1)NC(=O)[C@H](CC(N)=O)NC(=O)c1ccc2ccccc2n1: 278

* * *

experiment_summary: Arithmetic mean of Cmax of saquinavir mesylate following oral repeat dosing of 1000 mg Invirase Film-coated tablet in healthy human
Format: ADME, organism-based
experimental_context: both, plasma
property_measured: Cmax (ng/mL)

• CC(C)(C)NC(=O)[C@@H]1C[C@@H]2CCCC[C@@H]2CN1C[C@@H](O)[C@H](Cc1ccccc1)NC(=O)[C@H](CC(N)=O)NC(=O)c1ccc2ccccc2n1 = 404

* * *

experiment_summary: Geometric mean of AUC(0-infinity) of saquinavir mesylate following oral repeat dosing of 1000 mg Invirase Film-coated tablet in healthy human
Type: ADME, organism-based
experimental_context: both, plasma, read-out: AUC(0-infinity)
property_measured: AUC(0-inf)

- CC(C)(C)NC(=O)[C@@H]1C[C@@H]2CCCC[C@@H]2CN1C[C@@H](O)[C@H](Cc1ccccc1)NC(=O)[C@H](CC(N)=O)NC(=O)c1ccc2ccccc2n1: 1240 ng·h/mL

* * *

experiment_summary: Mean exposure of saquinavir mesylate estimated by Cmax following oral repeat dosing of 1000 mg Invirase Hard Gel Capsules capsules in healthy human
Assay type: ADME, organism-based
experimental_context: both, plasma
property_measured: Cmax (ng/mL)

- CC(C)(C)NC(=O)[C@@H]1C[C@@H]2CCCC[C@@H]2CN1C[C@@H](O)[C@H](Cc1ccccc1)NC(=O)[C@H](CC(N)=O)NC(=O)c1ccc2ccccc2n1: 285

* * *

experiment_summary: Arithmetic mean of AUC(0-infinity) of saquinavir mesylate following oral repeat dosing of 1000 mg Invirase Film-coated tablet in healthy human
Type: ADME, organism-based
experimental_context: both, plasma, read-out: AUC(0-infinity)
property_measured: AUC(0-inf) (ng·h/mL)

• CC(C)(C)NC(=O)[C@@H]1C[C@@H]2CCCC[C@@H]2CN1C[C@@H](O)[C@H](Cc1ccccc1)NC(=O)[C@H](CC(N)=O)NC(=O)c1ccc2ccccc2n1 = 1510

* * *

experiment_summary: Minimum Tmax of saquinavir mesylate following oral repeat dosing of 1000 mg Invirase Film-coated tablet in healthy human
Type: ADME, organism-based
experimental_context: both, plasma, read-out: Minimum Tmax
property_measured: Tmax (h)

• CC(C)(C)NC(=O)[C@@H]1C[C@@H]2CCCC[C@@H]2CN1C[C@@H](O)[C@H](Cc1ccccc1)NC(=O)[C@H](CC(N)=O)NC(=O)c1ccc2ccccc2n1 = 1.02

* * *

experiment_summary: clinical
experimental_context: both, human, plasma, po, 1000 mg
property_measured: half-life

- CC(C)(C)NC(=O)[C@@H]1C[C@@H]2CCCC[C@@H]2CN1C[C@@H](O)[C@H](Cc1ccccc1)NC(=O)[C@H](CC(N)=O)NC(=O)c1ccc2ccccc2n1: 7.73 h

* * *

experiment_summary: Mean exposure of saquinavir mesylate estimated by AUC(0-infinity) following oral repeat dosing of 1000 mg Invirase Hard Gel Capsules capsules in healthy men
Type: ADME, organism-based
experimental_context: male, human, plasma, read-out: AUC(0-infinity)
property_measured: AUC(0-inf) (ng·h/mL)

• CC(C)(C)NC(=O)[C@@H]1C[C@@H]2CCCC[C@@H]2CN1C[C@@H](O)[C@H](Cc1ccccc1)NC(=O)[C@H](CC(N)=O)NC(=O)c1ccc2ccccc2n1 = 1040

* * *

experiment_summary: Median Tmax of saquinavir mesylate following oral repeat dosing of 1000 mg Invirase Hard Gel Capsules capsules in healthy human
Type: ADME, organism-based
experimental_context: both, plasma, read-out: Median Tmax
property_measured: Tmax (h)

• CC(C)(C)NC(=O)[C@@H]1C[C@@H]2CCCC[C@@H]2CN1C[C@@H](O)[C@H](Cc1ccccc1)NC(=O)[C@H](CC(N)=O)NC(=O)c1ccc2ccccc2n1 = 4.37

* * *

experiment_summary: Mean exposure of saquinavir mesylate estimated by AUC(0-infinity) following oral repeat dosing of 1000 mg Invirase Film-coated tablet in healthy woman
Type: ADME, organism-based
experimental_context: female, human, plasma, read-out: AUC(0-infinity)
property_measured: AUC(0-inf) (ng·h/mL)

- CC(C)(C)NC(=O)[C@@H]1C[C@@H]2CCCC[C@@H]2CN1C[C@@H](O)[C@H](Cc1ccccc1)NC(=O)[C@H](CC(N)=O)NC(=O)c1ccc2ccccc2n1: 1480

* * *

experiment_summary: clinical
experimental_context: both, human, plasma, po, 1000 mg
property_measured: half-life (h)

- CC(C)(C)NC(=O)[C@@H]1C[C@@H]2CCCC[C@@H]2CN1C[C@@H](O)[C@H](Cc1ccccc1)NC(=O)[C@H](CC(N)=O)NC(=O)c1ccc2ccccc2n1: 7.51
